- test summary: Stability in simulated intestinal fluid
- Assay type: physicochemical
- conditions: simulated intestinal fluid pH 7.4, 37° C.; read-out: SIF T1/2 (converted)
- Protocol: Particularly relevant are water solubility, partition coefficient and stability in gastric and intestinal fluids. […] The solubility in water of a orally administered prodrug should be greater than at least about 0.1 mg/mL for optimal formulation and the half-lives in simulated gastric fluid and simulated intestinal fluid should be 1-2 h and 2-4 h respectively to allow sufficient time to traverse the stomach and be absorbed in the intestine.
metric name: half-life (h)

a. CCC(=O)OC[C@H]1O[C@@H](n2ccc(N)nc2=O)[C@](C)(F)[C@@H]1OC(=O)CC
b. CC(C)C(=O)OC[C@H]1O[C@@H](n2ccc(N)nc2=O)[C@](C)(F)[C@@H]1OC(=O)C(C)C
QUERY: I'm curious, which of these has a smaller half-life number: a or b ? State the label of the item chosen.
RESULT: a
(a: 72 h, b: 866 h)
